The reported numbers originate from paper PMC12812255.

Assay Summary: in vitro
Assay Setup: human
Value Kind: viability at 48 h

INSERT INTO measurements (compound_structure, experimental_value) VALUES
  ('O=C(O)Cc1cc(I)c(Oc2cc(I)c(O)c(I)c2)c(I)c1', '~71%');

* * *

Assay Summary: Cytotoxicity CCK-8
Assay Setup: human, CCF-STTG1 cells, CC50 CCF-STTG1, 48 h
Value Kind: CC50 at 48 h

INSERT INTO results (compound_structure, value_kind, experimental_value) VALUES
  ('Oc1c(Cl)cc(Cl)cc1Sc1cc(Cl)cc(Cl)c1O', 'CC50 at 48 h', '~139 µM');

* * *

Items are presented alongside their recorded IC50.
System Tested: UniProt I6XWA1
Assay Summary: Fluorescence polarization
Assay type: biochemical
Value Kind: IC50 (µM)

INSERT INTO results (compound_structure, experimental_value) VALUES
  ('O=C(O)Cc1cc(I)c(Oc2cc(I)c(O)c(I)c2)c(I)c1', 13),
  ('Oc1c(Cl)cc(Cl)cc1Sc1cc(Cl)cc(Cl)c1O', 6.2);

* * *

Assay Summary: Cytotoxicity CCK-8
Assay Setup: human
Value Kind: CC50 at 48 h

INSERT INTO results (compound, experimental_value) VALUES
  ('Oc1c(Cl)cc(Cl)cc1Sc1cc(Cl)cc(Cl)c1O [bithionol]', '32.4 µM');

* * *

System Tested: coupling enzymes, PPDK and luciferase
Assay Summary: ADSL-free PPDK-luciferase coupling enzyme assay
Assay Setup: read-out: IC50 ADSL-free; no ADSL, AMP 10 μM as substrate
The entries below are paired with their reported IC50.
Value Kind: IC50

INSERT INTO assay_data (compound_structure, system_tested, value_kind, experimental_value) VALUES
  ('O=C(O)Cc1cc(I)c(Oc2cc(I)c(O)c(I)c2)c(I)c1', 'coupling enzymes, PPDK and luciferase', 'IC50', '24.5 µM'),
  ('Oc1c(Cl)cc(Cl)cc1Sc1cc(Cl)cc(Cl)c1O', 'coupling enzymes, PPDK and luciferase', 'IC50', '21.6 µM');

* * *

As an illustration, consider measured pIC50 for molecules on human ADSL (huADSL) (Homo sapiens, UniProt P30566).
Sequence (P30566 whole entry): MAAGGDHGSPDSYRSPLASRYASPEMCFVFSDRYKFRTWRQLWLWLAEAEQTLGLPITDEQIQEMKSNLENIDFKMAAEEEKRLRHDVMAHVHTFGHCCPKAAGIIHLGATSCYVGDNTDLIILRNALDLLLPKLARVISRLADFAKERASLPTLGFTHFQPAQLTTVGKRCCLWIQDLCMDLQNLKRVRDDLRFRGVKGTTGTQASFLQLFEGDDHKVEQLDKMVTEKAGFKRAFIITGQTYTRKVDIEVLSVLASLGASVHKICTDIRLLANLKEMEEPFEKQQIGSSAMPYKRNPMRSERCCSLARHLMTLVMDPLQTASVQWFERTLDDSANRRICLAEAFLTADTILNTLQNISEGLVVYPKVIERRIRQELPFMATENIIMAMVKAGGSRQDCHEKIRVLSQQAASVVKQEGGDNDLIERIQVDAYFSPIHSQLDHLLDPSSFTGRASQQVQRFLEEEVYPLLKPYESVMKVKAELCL
pIC50: −log10 of the molar value.
Value Kind: pIC50

INSERT INTO results (molecule, experimental_value) VALUES
  ('O=C(O)Cc1cc(I)c(Oc2cc(I)c(O)c(I)c2)c(I)c1 [Tetrac, tetraiodothyroacetic acid]', 4.65),
  ('Oc1c(Cl)cc(Cl)cc1Sc1cc(Cl)cc(Cl)c1O [bithionol]', 4.83);

* * *

Assay Summary: Cytotoxicity CCK-8
Assay Setup: human, HEK293 cells
Value Kind: CC50 at 48 h

INSERT INTO measurements (compound_structure, value_kind, experimental_value) VALUES
  ('Oc1c(Cl)cc(Cl)cc1Sc1cc(Cl)cc(Cl)c1O', 'CC50 at 48 h', '19.3 µM');

* * *

System Tested: MtbADSL (Mycobacterium tuberculosis, UniProt I6XWA1)
Assay Summary: AMP-Glo Mtb ADSL assay
Type: biochemical
We begin with a simple list: items and their reported IC50.
Value Kind: IC50

INSERT INTO measurements (compound_structure, system_tested, experimental_value) VALUES
  ('O=C(O)Cc1cc(I)c(Oc2cc(I)c(O)c(I)c2)c(I)c1', 'MtbADSL (Mycobacterium tuberculosis, UniProt I6XWA1)', '1600 nM'),
  ('Oc1c(Cl)cc(Cl)cc1Sc1cc(Cl)cc(Cl)c1O', 'MtbADSL (Mycobacterium tuberculosis, UniProt I6XWA1)', '1200 nM');
